PROCEDURE SUMMARY: chemical genetic growth profiling, strain panel (AID 1159580);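 also: tested at 20 µM; growth read once vehicle control cultures reached saturation at 30 °C; lower values mean less growth of the strain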
TEST SETTINGS: S. cerevisiae deletion strains, growth OD, locus YML070W, strain DAK1
Screen size: about 5,500 compounds; about 2,000 (36%) were called active. Another 18% or so got no clear call; they are omitted. Rule as the data show it: active = normalized growth mostly below about 0.91 (no sharp cut-off); inconclusive = no clear call, values can overlap the other calls; inactive = mostly above about 0.92. Some of the results follow.
Labels: True = active, False = inactive

In [3]: df
Out[3]:
                               query_smiles    cat
0  N/C(CCSc1ccc(Cl)cc1)=N/OC(=O)Nc1ccc(Cl)cc1   True
1  CC(=O)c1ccc(Cl)c(NS(=O)(=O)c2cc(Cl)c(Cl)cc2Cl)c1  False
2  CC(C)c1ccc(COC(=O)Nc2ccc(CSc3ccc(Cl)cc3)o2)cc1  False
3  COc1cccc(C2CCN(C(=O)c3cccc4ccccc34)CC2)c1  False
4           Cc1ccc(Nc2ccnc3cc(Cl)ccc23)cc1F  False
5  O=C(NCc1ccc(Cl)c(Cl)c1)c1cccnc1OCC(F)(F)F  False
